# subject-of-test: Toll-like receptor 9 (Homo sapiens) (UniProt Q9NR96)
# Sequence (Q9NR96 whole entry, looked up): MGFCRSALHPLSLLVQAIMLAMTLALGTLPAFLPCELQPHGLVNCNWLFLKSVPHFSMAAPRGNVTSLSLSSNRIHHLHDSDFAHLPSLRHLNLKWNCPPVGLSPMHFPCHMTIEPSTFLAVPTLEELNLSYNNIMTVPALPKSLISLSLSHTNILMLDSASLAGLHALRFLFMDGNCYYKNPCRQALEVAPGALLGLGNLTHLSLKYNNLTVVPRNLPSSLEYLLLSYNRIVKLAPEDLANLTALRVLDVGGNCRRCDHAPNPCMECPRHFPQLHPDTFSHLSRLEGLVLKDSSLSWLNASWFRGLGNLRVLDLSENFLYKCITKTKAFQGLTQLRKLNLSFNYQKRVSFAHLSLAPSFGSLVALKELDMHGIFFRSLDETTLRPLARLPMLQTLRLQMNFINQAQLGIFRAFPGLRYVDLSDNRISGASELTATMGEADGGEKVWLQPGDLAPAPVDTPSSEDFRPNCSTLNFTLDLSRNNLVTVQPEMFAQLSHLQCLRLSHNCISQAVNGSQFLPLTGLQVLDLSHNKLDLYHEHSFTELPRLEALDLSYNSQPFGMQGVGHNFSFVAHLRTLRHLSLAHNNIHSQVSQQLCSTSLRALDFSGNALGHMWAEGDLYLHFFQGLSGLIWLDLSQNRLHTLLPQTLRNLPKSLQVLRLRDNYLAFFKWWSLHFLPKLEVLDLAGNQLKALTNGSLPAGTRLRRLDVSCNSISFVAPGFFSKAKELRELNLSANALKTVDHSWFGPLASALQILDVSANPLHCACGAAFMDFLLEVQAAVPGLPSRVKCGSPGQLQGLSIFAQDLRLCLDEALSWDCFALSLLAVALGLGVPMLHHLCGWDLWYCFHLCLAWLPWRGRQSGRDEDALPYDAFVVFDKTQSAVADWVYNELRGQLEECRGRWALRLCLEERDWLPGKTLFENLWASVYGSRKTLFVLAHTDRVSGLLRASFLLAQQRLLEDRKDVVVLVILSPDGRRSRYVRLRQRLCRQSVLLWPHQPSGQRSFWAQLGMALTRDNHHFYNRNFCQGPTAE
# assay-name: TLR9-MyD88 association inhibitors, retest, confirmation, cell-based, CHO, BLA complementation, fluorescence, triplicate (AID 540250);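 note: blue over green emission ratio reports constitutive TLR9 MyD88 association via BLA complementation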
# assay-context: CCF4 FRET ratio, at 4.98 µM
The other results are listed elsewhere or left out. Active and inactive are the calls of the source.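 Rule for the calls: active = mean inhibition across three repeats above about 21% taken from the earlier screen (limit read from the data); inactive = the rest.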
Choose one outcome from this list and give only that: active, inactive

Test call, this molecule: O=C(/C=C(O)/C=C/c1ccc(O)cc1)/C=C/c1ccc(O)cc1
active

Test call, this molecule: O=C(COC(=O)c1c2c(nc3ccccc13)/C(=C\c1cccs1)CCC2)Nc1ccccc1Cl
inactive

Test call, this molecule: Nc1cccc2c1C(=O)N(Cc1nnc(-c3ccccc3Br)o1)C2=O
inactive

Test call, this molecule: COc1ccc(-c2nn(-c3ccccc3)cc2/C=N/Nc2ccccn2)cc1OC
inactive

Test call, this molecule: Cc1cc(C)nc(SCc2ccccc2C#N)n1
inactive

Test call, this molecule: CCN(CC)CCCC(C)n1c2nc(=O)[nH]c(=O)c-2nc2cc(Cl)ccc21 (stereo unspecified)
inactive

Test call, this molecule: O=[N+]([O-])c1ccc(N/N=C/c2ccccc2)cc1
inactive

Test call, this molecule: O=C(Nc1ccccc1Cl)/C(Cl)=C(\Cl)S(=O)c1ccccc1 (stereo unspecified)
active

Test call, this molecule: COC(=O)Cc1cc(=O)oc2c(C)c(O)ccc12
inactive

Test call, this molecule: O=C1NC(=O)C2C1C(c1ccc([N+](=O)[O-])cc1)=NN2Cc1ccccc1 (stereo unspecified)
active

Test call, this molecule: COc1ccc(-c2cc(C(F)(F)F)nc(S(C)(=O)=O)n2)cc1OC
active

Test call, this molecule: Cc1cccc(CS(=O)(=O)c2ncc(Cl)c(C(=O)Nc3ccc(F)cc3)n2)c1
active

Test call, this molecule: Cc1cc2oc3ccc(NCCC4CCCN4C)cc3c(=O)c2cc1C (stereo unspecified)
inactive

Test call, this molecule: O=[N+]([O-])c1c(NCCO)cc(Sc2nc3ccccc3s2)c2nonc12
active

Test call, this molecule: COc1ccccc1N1N=C(c2cccs2)CC1c1ccccc1 (stereo unspecified)
active
